Cited source: PubChem BioAssay (NCI)

Tested on: UO-31 renal
experimentNotes: NCI-60 one-dose screen, 48 h (100 = growth as untreated, 0 = no growth, -100 = all killed)
measurementSetup: 10 µM unless noted
Compounds without any hit were thinned out: in the full panel of roughly 83,000, 20% have a hit.
Listed next: entries and their corresponding growth.
Give just the numeric value; % need not be written.

Known results for compounds:
>>> recordedvalue("Nc1c(C(=O)Nc2cccc3ccccc23)sc2nc3c(cc12)CCCCCC3")
55
>>> recordedvalue("O=CN1N=C(c2ccc(F)cc2)CC1c1cccc(Nc2ccnc3cc(C(F)(F)F)ccc23)c1 (stereo not drawn)")
44.6
>>> recordedvalue("C=C1C(=O)O[C@H]2[C@H]1CC/C(COC(=O)c1c[nH]c3ccccc13)=C\\CC[C@@]1(C)O[C@@H]21")
-97.6
>>> recordedvalue("C#Cc1cccc(Nc2ncnc3ccc(NC(=O)c4ccccc4)cc23)c1")
56
>>> recordedvalue("CNS(=O)(=O)c1cccc(-c2ccc3c4c(n(C)c(=O)c3c2)-c2ccccc2C4=O)c1")
35.4
>>> recordedvalue("O=C(O)c1cc(N=Nc2ccc(-c3ccc(N=Nc4c(S(=O)(=O)O)cc5ccc(Nc6ccccc6)cc5c4O)cc3)cc2)ccc1O")
81.3
>>> recordedvalue("CN1CCN(C(=O)[C@@]2(C)CC[C@]3(C)CC[C@]4(C)C(=CC[C@@H]5[C@@]6(C)CC[C@H](OC(=O)c7cccnc7)C(C)(C)[C@@H]6CC[C@]54C)[C@@H]3C2)CC1")
74.1

Turning to the following compound.
growth for O=C(CSC(=S)N1CCCCC1)Nc1ccccc1 ?
86.5

====

Tested on: NCI-H322M lung
experimentNotes: NCI-60 one-dose screen, 48 h (100 = growth as untreated, 0 = no growth, -100 = all killed)
measurementSetup: 10 µM unless noted
Compounds without any hit were thinned out: in the full panel of roughly 83,000, 20% have a hit.
Tag: true if measured growth is not below 80%, false if it is.

Worked cases, answers included:
>>> cat("COc1cccc(NC(=O)Nc2ccc(Oc3ncnc4[nH]c(C)c(C)c34)cc2)c1")
"true"
>>> cat("O=c1[nH]c(-c2cccc(F)c2)cc2cc(F)ccc12")
"false"

Would you say COC(=O)/C=C1\SC(=Nc2cccc(OC)c2)N(CCc2c[nH]c3ccccc23)C1=O shows growth at minimum 80%?
false

Would you say COc1ccccc1N1CCN(CCCOc2ccc(C(=O)/C=C3/C(=O)Nc4ccccc43)cc2)CC1 shows growth at minimum 80%?
true

Would you say O=C1NN(c2ccccc2)C(c2ccc3c(c2)OCO3)N2CCC[C@@H]12 (stereo partly drawn) shows growth at minimum 80%?
true

Would you say Cc1cc(C)c(NC(=O)c2sc3nc4c(cc3c2N)CCCCCC4)c(C)c1 shows growth at minimum 80%?
true

Would you say COc1ccc2nc(-c3ccc(Cl)cc3)cc(-c3nnc(SCC(=O)Nc4ccc(/C(C)=N\O)cc4)o3)c2c1 shows growth at minimum 80%?
false

Would you say COC(=O)/C=C/c1cc(OC(C)=O)c2c(c1)C(C(=O)OC)C(c1ccc(OC(C)=O)c(OC(C)=O)c1)O2 (stereo not drawn) shows growth at minimum 80%?
false

====

Test system: SW-620 colon
experimentNotes: NCI-60 one-dose screen, 48 h (100 = growth as untreated, 0 = no growth, -100 = all killed)
measurementSetup: 10 µM unless noted
The panel holds about 83,000 compounds, 20% with a hit somewhere; the sample as a whole holds those more often.
Tag: satisfied if measured growth is not below 30%, not satisfied if it is.

>>> cat("COc1ccc(C(=O)c2cc(OC)c(OC)c(OC)c2)cc1OC(=O)C(Cl)(Cl)Cl")
"not satisfied"
>>> cat("COc1ccc(-n2cc(-c3ccc(Cl)c(Cl)c3)[nH]c2=O)cc1OC")
"satisfied"
>>> cat("Cc1nccc2c3ccc(OCc4cn(-c5ccccc5)nn4)cc3n(CCCc3ccccc3)c12")
"satisfied"
>>> cat("COC(=O)c1nc(-c2ccccc2)oc1S(=O)(=O)n1nc(-c2ccccc2)cc1N")
"not satisfied"
>>> cat("CN(C)CCCn1c2c(c3cc(-c4cccc(S(N)(=O)=O)c4)ccc3c1=O)C(=O)c1ccccc1-2")
"satisfied"
>>> cat("Cc1cc(NC(=O)CNc2nc(Oc3ccc(F)cc3)nc(-c3ccc(F)cc3)n2)ccc1Cl")
"satisfied"
>>> cat("N#CC1C(c2ccc(Cl)cc2)=Nc2c(c(-c3ccccc3)nn2-c2ccccc2)C12C(=O)Nc1ccc(Cl)cc12 (stereo not given)")
"satisfied"
>>> cat("C#CCN(CCCOc1ccc(Cl)cc1Cl)CCCSC(=O)CCCCCN1/C(=C\\C=C2/CCCC(/C=C/C3=[N+](CCCCCC(=O)[O-])c4ccccc4C3(C)C)=C2Cl)C(C)(C)c2ccccc21")
"not satisfied"
>>> cat("CCCCn1c(=O)c(/C=C/C(=O)/C=C/c2ccc(OC)cc2)cc2cc(Cl)ccc21")
"not satisfied"
>>> cat("C=C1C(=O)O[C@H]2[C@H]1CC/C(COC(=O)CCCCCCC(=O)OC/C1=C/CC[C@@]3(C)O[C@H]3[C@H]3OC(=O)C(=C)[C@@H]3CC1)=C\\CC[C@@]1(C)O[C@@H]21")
"not satisfied"

Would you say C=C1C(=O)O[C@H]2[C@H]1CC/C(COC(=O)c1cccnc1)=C\CC[C@@]1(C)O[C@@H]21 shows growth at minimum 30%?
not satisfied

Would you say Nc1c(C(=O)Nc2ccccn2)sc2nc3c(cc12)C(=O)CCC3 shows growth at minimum 30%?
not satisfied

Would you say COc1ccc(-c2[nH]c3ccc(OC)cc3c2C=C(C#N)C#N)cc1 shows growth at minimum 30%?
not satisfied

Would you say O=C1NN(c2ccccc2)C(c2ccc(Cl)cc2)N2CCC[C@H]12 (stereo not given in full) shows growth at minimum 30%?
satisfied

Would you say CC1(C)[C@@H](O)CC[C@]2(C)[C@H]3CC[C@@H]4[C@H]5[C@H](c6cn(-c7ccccc7)nn6)CC[C@]5(CO)CC[C@@]4(C)[C@]3(C)CC[C@@H]12 shows growth at minimum 30%?
satisfied

Would you say CC(=O)Nc1c(C(=O)Nc2ccccc2)sc2nc3c(cc12)C(OC(C)=O)CCC3 (stereo not given) shows growth at minimum 30%?
satisfied

Would you say C=C(C)[C@@H]1CC[C@]2(C(=O)n3ccnc3)CC[C@]3(C)[C@H](CC[C@@H]4[C@@]5(C)CCCNC(C)(C)[C@@H]5CC[C@]43C)[C@@H]12 shows growth at minimum 30%?
not satisfied

Would you say O=C1C(Cl)=C(Nc2ccc3c(c2NC2=C(Cl)C(=O)c4ccccc4C2=O)C(=O)c2ccccc2C3=O)C(=O)c2ccccc21 shows growth at minimum 30%?
not satisfied

====

Test system: NCI/ADR-RES ovarian
experimentNotes: NCI-60 one-dose screen, 48 h
measurementSetup: 10 µM unless noted
Protocol: Growth inhibition of the NCI/ADR-RES human […] tumor cell line is measured as a screen for anti-cancer activity. Cells are grown in 96 well plates and exposed to the test compound for 48 hours. Compounds are tested at a single concentration, which is 10^-5 M for most compounds. The reported endpoint is percent growth (GI% or GIPRCNT), where numbers from 0 - 100% represent growth inhibition, and numbers from -100% - 0 represent cell death. For example, a value of 40 represents 60% growth inhibition. […]
About 83,000 compounds went through this panel and 20% of them were active in at least one assay; those are over-represented in the sample as a whole. Calls of active or inactive are those of the source. The calls were made as follows: active = growth percent below 10; inactive = the rest.
Select the correct class. Options are t = active, f = inactive and nothing else.

Give the logged outcome of this assay for the following molecule: O=C(O)c1cn(C2CC2)c2cc(N3CCN(C(=O)CSc4nnc(-c5ccc(Cl)cc5)n4-c4ccccc4)CC3)c(F)cc2c1=O
f

Give the logged outcome of this assay for the following molecule: [2H]c1cc2c(c([2H])c1F)/C(=C/c1[nH]c(C)c(C(=O)NCCN(CC)CC)c1C)C(=O)N2
f

Give the logged outcome of this assay for the following molecule: CCOC(=O)c1ccc(Nc2ncnc3ccc(NC(=O)c4ccccc4)cc23)cc1
f

Give the logged outcome of this assay for the following molecule: COc1cc(NC(=O)COc2cc(C)nc3ccc(OC)cc23)cc(OC)c1
f

Give the logged outcome of this assay for the following molecule: COc1cccc2c1-c1ccccc1C2=O
t

Give the logged outcome of this assay for the following molecule: COc1ccc2cc(/C=C3\N=C(c4cc(OC)c(OC)c(OC)c4)OC3=O)c(OC)nc2c1
f

Give the logged outcome of this assay for the following molecule: C=CCn1c(CN2CCN(c3cc4c(cc3F)c(=O)c(C(=O)O)cn4C3CC3)CC2)n[nH]c1=S
f

Give the logged outcome of this assay for the following molecule: COc1cc(C2=N/C(=C\c3cc4ccccc4nc3Oc3ccccc3)C(=O)N2C(=N)N)cc(OC)c1OC
f

Give the logged outcome of this assay for the following molecule: Cc1c(O)c(=O)ccn1-c1nc2ccccc2s1
f

Give the logged outcome of this assay for the following molecule: Cc1nccc2c3ccc(OCc4cn(-c5ccc(Cl)cc5)nn4)cc3n(CC(C)C)c12
f

Give the logged outcome of this assay for the following molecule: O=C1CS/C(=N/c2nnc(-c3ccc(O)cc3)s2)N1
f

Give the logged outcome of this assay for the following molecule: COCCOCCOCc1n(Cc2ccc3ccccc3n2)c2ccccc2[n+]1Cc1ccc2ccccc2n1
f

Give the logged outcome of this assay for the following molecule: CCOC(=O)c1cnn(-c2nc(-c3ccc(F)cc3)c(C#N)c(N3CCOCC3)n2)c1N
f

Give the logged outcome of this assay for the following molecule: Oc1c(CCl)cc(Cl)cc1Cc1cc(Cl)cc(Cc2cc(Cl)cc(CCl)c2O)c1O
f

Give the logged outcome of this assay for the following molecule: Cc1cc(C)nc(NS(=O)(=O)c2ccc(Nc3ccc4c5c(n(CCCN(C)C)c(=O)c4c3)-c3ccccc3C5=O)cc2)n1
f

Give the logged outcome of this assay for the following molecule: COc1ccc2nc3c(n2c1)C(=O)C(=O)c1ccccc1-3
t
